- METHOD: Bioavailability in ICR mouse at 5 mg/kg, sc single dose measured upto 24 hrs
- Format: ADME, organism-based
- RECORDED_CONDITIONS: in vivo
QUANTITY_NAME: bioavailability (%)
Record the value in %, omitting the unit from your answer.

Enquiry: Data request, read-out bioavailability, for C=CC(=O)Nc1ccc(C(=O)Nc2n[nH]c3ccc(-c4cncc(NC[C@@H](O)c5ccccc5)c4)cc23)cc1
Return: 64.2

====

Please go through the items and note down their pIC50.
- MEASURED_ON: Cyclin-dependent kinase 7 (Homo sapiens, UniProt P50613)
- Sequence (P50613 whole entry): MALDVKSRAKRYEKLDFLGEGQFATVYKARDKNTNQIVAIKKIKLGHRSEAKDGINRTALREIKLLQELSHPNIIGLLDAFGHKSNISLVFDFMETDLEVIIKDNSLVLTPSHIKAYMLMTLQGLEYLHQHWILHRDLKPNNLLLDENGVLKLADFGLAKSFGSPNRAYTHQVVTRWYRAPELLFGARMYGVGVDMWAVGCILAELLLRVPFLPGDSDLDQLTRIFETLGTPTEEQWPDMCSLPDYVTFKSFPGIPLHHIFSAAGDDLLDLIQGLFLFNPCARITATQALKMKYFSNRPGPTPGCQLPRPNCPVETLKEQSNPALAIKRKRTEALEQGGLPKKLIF
- METHOD: Inhibition of CDK7 (unknown origin) assessed as phosphorylation of ULight 4EBP1 peptide substrate measured after 2 hrs by FRET-based LANCE Ultra KinSelect assay
Hey, just a heads up that pIC50 is the negative log base 10 of the concentration in molar.

Enquiry: Data request, read-out pIC50, for N[C@H](C(=O)Nc1cncc(-c2ccc3[nH]nc(NC(=O)c4ccccc4)c3c2)c1)c1ccccc1
Return: 5.50

Enquiry: Can you handle COc1cncc(-c2ccc3[nH]nc(NC(=O)c4ccccc4)c3c2)c1 next?
Return: 5.26

Enquiry: Can you handle C=CC(=O)Nc1ccc(C(=O)Nc2n[nH]c3ccc(-c4cncc(NC[C@@H](O)c5ccccc5)c4)cc23)cc1 next?
Return: 8.40

Enquiry: Can you handle N[C@@H](Cc1ccccc1)C(=O)Nc1cncc(-c2ccc3[nH]nc(NC(=O)c4ccccc4)c3c2)c1 next?
Return: 5.87

Enquiry: Can you handle O=C(Nc1n[nH]c2ccc(-c3cncc(NC[C@@H](CO)Cc4ccccc4)c3)cc12)c1ccccc1 next?
Return: 6.17

Enquiry: Can you handle C=CC(=O)Nc1ccc(C(=O)Nc2n[nH]c3ccc(-c4cncc(NC(=O)[C@@H](N)Cc5ccccc5)c4)cc23)cc1 next?
Return: 8.15

Enquiry: Can you handle O=C(Nc1n[nH]c2ccc(-c3cncc(NC[C@@H](O)c4ccccc4)c3)cc12)c1ccccc1 next?
Return: 6.36

Enquiry: Can you handle NCCOc1cncc(-c2ccc3[nH]nc(NC(=O)c4ccccc4)c3c2)c1 next?
Return: 5.70

====

- MEASURED_ON: Cyclin-dependent kinase 7 (Homo sapiens)
- METHOD: Inhibition of CDK7 (unknown origin) assessed as phosphorylation of ULight 4EBP1 peptide substrate measured after 2 hrs by FRET-based LANCE Ultra KinSelect assay
pIC50: −log10 of the molar value.
Think of 6 as a floor: if pIC50 stands on it or above, it is met; beneath it, not met.

Enquiry: pIC50 >= 6 for N[C@@H](COc1cncc(-c2ccc3[nH]nc(NC(=O)c4ccccc4)c3c2)c1)c1ccccc1 ?
Return: not met

Enquiry: Can you handle O=C(Nc1n[nH]c2ccc(-c3cncc(NC[C@H](O)c4ccccc4)c3)cc12)c1ccccc1 next?
Return: met

Enquiry: Can you handle O=C(Nc1n[nH]c2ccc(-c3cccnc3)cc12)c1ccccc1 next?
Return: not met

Enquiry: Can you handle N[C@@H](COc1cncc(-c2ccc3[nH]nc(NC(=O)c4ccccc4)c3c2)c1)Cc1ccccc1 next?
Return: not met

Enquiry: Can you handle N[C@H](COc1cncc(-c2ccc3[nH]nc(NC(=O)c4ccccc4)c3c2)c1)Cc1ccccc1 next?
Return: met

Enquiry: Can you handle NC[C@@H](CNc1cncc(-c2ccc3[nH]nc(NC(=O)c4ccccc4)c3c2)c1)c1ccccc1 next?
Return: met

Enquiry: Can you handle N[C@H](Cc1ccccc1)C(=O)Nc1cncc(-c2ccc3[nH]nc(NC(=O)c4ccccc4)c3c2)c1 next?
Return: not met

Enquiry: Can you handle O=C(Nc1n[nH]c2ccc(-c3cncc(NCCO)c3)cc12)c1ccccc1 next?
Return: not met

Enquiry: Can you handle O=C(Nc1n[nH]c2ccc(-c3cncc(O)c3)cc12)c1ccccc1 next?
Return: not met

Enquiry: Can you handle NCCNc1cncc(-c2ccc3[nH]nc(NC(=O)c4ccccc4)c3c2)c1 next?
Return: not met

Enquiry: Can you handle C=CC(=O)Nc1ccc(C(=O)Nc2n[nH]c3ccc(-c4cncc(N[C@H](CO)Cc5ccccc5)c4)cc23)cc1 next?
Return: met

The reported measurements were obtained from ChEMBL document CHEMBL5236590.
